Assay: in vitro
Conditions: African green monkey, CC50 (Herpes Simplex Virus Type 1)
Measured endpoint: CC50

Past entries and their recorded results:
CN1CCN(Nc2ncnc3c2ncn3C[C@H]2[C@@H]3CC(O)[C@H]2C[C@@H]3Cl)CC1 (some centres unmarked)
> 766 µM
COc1ncnc2c1ncn2C[C@H]1[C@@H]2CC(O)[C@H]1C[C@@H]2Cl (some centres unmarked)
> 972 µM
OC1C[C@H]2[C@H](Cn3cnc4c(N5CCOCC5)ncnc43)[C@@H]1C[C@@H]2Cl (some centres unmarked)
> 600 µM
Oc1ccc(CCNc2ncnc3c2ncn3C[C@H]2[C@@H]3CC(O)[C@H]2C[C@@H]3Cl)cc1 (some centres unmarked)
447 µM
O=c1[nH]c(=O)n(C[C@H]2[C@@H]3CC(O)[C@H]2C[C@@H]3Cl)cc1F (some centres unmarked)
> 1040 µM

[in] Need CC50, item OC1C[C@H]2[C@H](Cn3cnc4c(NC5CCCCC5)ncnc43)[C@@H]1C[C@@H]2Cl (some centres unmarked)
[out] 521 µM

[in] Need CC50, item Nc1nc2c(ncn2COCCO)c(=O)[nH]1 [Acyclovir, reference compound]
[out] > 1130 µM

[in] Need CC50, item OC1C[C@H]2[C@H](Cn3cnc4c(NC5CC5)ncnc43)[C@@H]1C[C@@H]2Cl (some centres unmarked)
[out] > 773 µM
